tgt: T1, AFP158/HLA-A*02:01 complex (human)
T1 construct: flowed over the chip in SPR; also called AFP158 pro
experiment: SPR, KD ratio to AS170036 VL1VH1;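 note: crude scFv captured on a sensor chip, peptide–HLA complex passed over at several concentrations, association then buffer dissociation, KD derived from on- and off-rates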
Listed next: entries and their corresponding Affinity increase.
Answer with a number only, understood to be in fold.

Value of measured Affinity increase for the entry LE32D (scFv, AS170036 VL1VH1 scFv mutein) scFv: QSALTQPRSVSGSPGQSVTISCAGTSSDVGSDNYVSWYQQHPGKAPKLMIYQVNKRASGVPDRFSGSKSGNTASLTISGLQAEDEADYYCASYRSSDHNIVFGGGTKLTVLGGGGSGGGGSGGGGSEVQLVESGGGLVQPGGSLRLSCAASGFTFSSYAMSWVRQAPGKGLEWVSTINSGTGSPYYADSVKGRFTISRDNSKNTLYLQMNSLRAEDTAVYYCAKNFFDGSWFLGPPAMDYWGQGTLVTVSSHHHHHH : 1.3

Value of measured Affinity increase for the entry LD97W (scFv, AS170036 VL1VH1 scFv mutein) scFv: QSALTQPRSVSGSPGQSVTISCAGTSSDVGSENYVSWYQQHPGKAPKLMIYQVNKRASGVPDRFSGSKSGNTASLTISGLQAEDEADYYCASYRSSWHNIVFGGGTKLTVLGGGGSGGGGSGGGGSEVQLVESGGGLVQPGGSLRLSCAASGFTFSSYAMSWVRQAPGKGLEWVSTINSGTGSPYYADSVKGRFTISRDNSKNTLYLQMNSLRAEDTAVYYCAKNFFDGSWFLGPPAMDYWGQGTLVTVSSHHHHHH : 0.4

Value of measured Affinity increase for the entry LD97E (scFv, AS170036 VL1VH1 scFv mutein) scFv: QSALTQPRSVSGSPGQSVTISCAGTSSDVGSENYVSWYQQHPGKAPKLMIYQVNKRASGVPDRFSGSKSGNTASLTISGLQAEDEADYYCASYRSSEHNIVFGGGTKLTVLGGGGSGGGGSGGGGSEVQLVESGGGLVQPGGSLRLSCAASGFTFSSYAMSWVRQAPGKGLEWVSTINSGTGSPYYADSVKGRFTISRDNSKNTLYLQMNSLRAEDTAVYYCAKNFFDGSWFLGPPAMDYWGQGTLVTVSSHHHHHH : 0.4

Value of measured Affinity increase for the entry LH98R (scFv, AS170036 VL1VH1 scFv mutein) scFv: QSALTQPRSVSGSPGQSVTISCAGTSSDVGSENYVSWYQQHPGKAPKLMIYQVNKRASGVPDRFSGSKSGNTASLTISGLQAEDEADYYCASYRSSDRNIVFGGGTKLTVLGGGGSGGGGSGGGGSEVQLVESGGGLVQPGGSLRLSCAASGFTFSSYAMSWVRQAPGKGLEWVSTINSGTGSPYYADSVKGRFTISRDNSKNTLYLQMNSLRAEDTAVYYCAKNFFDGSWFLGPPAMDYWGQGTLVTVSSHHHHHH : 1.1

Value of measured Affinity increase for the entry LY93H (scFv, AS170036 VL1VH1 scFv mutein) scFv: QSALTQPRSVSGSPGQSVTISCAGTSSDVGSENYVSWYQQHPGKAPKLMIYQVNKRASGVPDRFSGSKSGNTASLTISGLQAEDEADYYCASHRSSDHNIVFGGGTKLTVLGGGGSGGGGSGGGGSEVQLVESGGGLVQPGGSLRLSCAASGFTFSSYAMSWVRQAPGKGLEWVSTINSGTGSPYYADSVKGRFTISRDNSKNTLYLQMNSLRAEDTAVYYCAKNFFDGSWFLGPPAMDYWGQGTLVTVSSHHHHHH : 0.4

Value of measured Affinity increase for the entry LD97Y (scFv, AS170036 VL1VH1 scFv mutein) scFv: QSALTQPRSVSGSPGQSVTISCAGTSSDVGSENYVSWYQQHPGKAPKLMIYQVNKRASGVPDRFSGSKSGNTASLTISGLQAEDEADYYCASYRSSYHNIVFGGGTKLTVLGGGGSGGGGSGGGGSEVQLVESGGGLVQPGGSLRLSCAASGFTFSSYAMSWVRQAPGKGLEWVSTINSGTGSPYYADSVKGRFTISRDNSKNTLYLQMNSLRAEDTAVYYCAKNFFDGSWFLGPPAMDYWGQGTLVTVSSHHHHHH : 0.4
